# System: HepG2
# Experiment Description: cytotoxicity call (relative viability < 0.9)
# Condition Summary: 10 µM
Screen size: about 39,000 compounds; about 3,300 (8.5%) were called active. What follows is part of a selection rich in actives, with near analogues and random picks from the rest.
Endpoint: cytotoxicity call

INSERT INTO results (item_smiles, measured) VALUES
  ('C[C@H](CO)N1C[C@H](C)[C@@H](CN(C)CC2CCCCC2)Oc2c(NC(=O)Nc3ccc(C(F)(F)F)cc3)cccc2C1=O', 'inactive'),
  ('C[C@@H]1CCCCO[C@@H](CN(C)C(=O)Cc2ccccc2)[C@H](C)CN([C@@H](C)CO)C(=O)c2cc(NS(=O)(=O)c3cccs3)ccc2O1', 'inactive'),
  ('C[C@H]1CN([C@@H](C)CO)C(=O)c2cccc(NC(=O)Nc3ccc(C(F)(F)F)cc3)c2O[C@H]1CN(C)CC1CCCCC1', 'active'),
  ('C[C@@H]1CN([C@H](C)CO)C(=O)Cc2cc(NC(=O)Cc3cn(C)c4ccccc34)ccc2O[C@@H]1CN(C)Cc1ccc(Oc2ccccc2)cc1', 'active'),
  ('C[C@H](CO)N1C[C@H](C)[C@H](CN(C)CC2CCCCC2)Oc2c(NC(=O)Nc3ccc(F)cc3)cccc2C1=O', 'inactive');

## Input // Input: C[C@@H]1CN([C@H](C)CO)C(=O)c2cccc(NC(=O)Nc3ccc(C(F)(F)F)cc3)c2O[C@@H]1CN(C)CC1CCCCC1 . Output its cytotoxicity call only.
## Output active

## Input // Input: CNc1ccc(-c2nc(N3CCOCC3)c3sc(CN(C)c4ncc(C(=O)NO)cn4)cc3n2)cn1 . Output its cytotoxicity call only.
## Output active

----------
# Tested on: HepG2
# Experiment Description: cytotoxicity call (relative viability < 0.9)
# Condition Summary: 10 µM
The whole screen tested about 39,000 compounds, of which about 3,300 (8.5%) were called active. The full list was thinned out, with actives kept by preference.
Field 'call' accepts t (active), f (inactive)

INSERT INTO measurements (item_smiles, measurement_target, category_label) VALUES
  ('CC(C)NC(=O)N(C)C[C@H]1OCCCC[C@H](C)Oc2ccc(NC(=O)C3CCCCC3)cc2C(=O)N([C@H](C)CO)C[C@H]1C', 'HepG2', 'f'),
  ('C[C@H](CO)N1C[C@H](C)[C@H](CN(C)Cc2ccc(Oc3ccccc3)cc2)Oc2ccc(NC(=O)Cc3cn(C)c4ccccc34)cc2C1=O', 'HepG2', 't');

## Input Each compound tested received a call. Report the one for Cc1cc(C)c(S(=O)(=O)N2CCO[C@@H]2CNC(=O)C(=O)NCCCN2CCCC2=O)c(C)c1 .
## Output f

## Input Each compound tested received a call. Report the one for C[C@H]1CN([C@@H](C)CO)C(=O)c2cc(NC(=O)Cc3cn(C)c4ccccc34)ccc2O[C@@H]1CN(C)Cc1ccc(Oc2ccccc2)cc1 .
## Output t

----------
# System: HepG2
# Experiment Description: cytotoxicity call (relative viability < 0.9)
# Condition Summary: 10 µM
Out of some 39,000 compounds screened, about 3,300 (8.5%) were called active. Shown is part of a subset that was picked to be rich in actives.
Endpoint: cytotoxicity call

The cases that follow already have their cytotoxicity call on record.
INSERT INTO measurements (compound, endpoint, measured) VALUES
  ('C[C@H](CO)N1C[C@H](C)[C@@H](CN(C)CC2CCCCC2)OCCCC[C@H](C)Oc2ccc(NC(=O)Nc3ccc(C(F)(F)F)cc3)cc2C1=O', 'cytotoxicity call', 'active'),
  ('C[C@@H]1CN([C@@H](C)CO)C(=O)c2cc(NC(=O)Cc3ccccc3)ccc2O[C@@H](C)CCCCO[C@H]1CN(C)Cc1ccncc1', 'cytotoxicity call', 'inactive'),
  ('Cc1noc(C)c1S(=O)(=O)Nc1cccc2c1O[C@@H](CN(C)Cc1ccc(Oc3ccccc3)cc1)[C@@H](C)CN([C@@H](C)CO)C2=O', 'cytotoxicity call', 'inactive'),
  ('C[C@@H]1CN([C@@H](C)CO)C(=O)c2cc(NC(=O)Nc3ccccc3)ccc2O[C@@H](C)CCCCO[C@H]1CN(C)C(=O)OC(C)(C)C', 'cytotoxicity call', 'inactive'),
  ('C[C@@H]1CN([C@H](C)CO)C(=O)Cc2cc(NS(=O)(=O)c3ccc(F)cc3)ccc2O[C@@H]1CN(C)S(=O)(=O)c1cn(C)cn1', 'cytotoxicity call', 'inactive');

## Input // Input: Cn1cnc(S(=O)(=O)N2C[C@H](O)COC[C@H]3O[C@H](CC(=O)NCc4ccc(F)cc4)CC[C@@H]32)c1 . Output its cytotoxicity call only.
## Output inactive

## Input // Input: C[C@@H]1CCCCO[C@H](CN(C)C(=O)Nc2ccc3c(c2)OCO3)[C@@H](C)CN([C@@H](C)CO)C(=O)c2cc(NS(=O)(=O)c3ccccc3)ccc2O1 . Output its cytotoxicity call only.
## Output inactive

## Input // Input: C[C@H](CO)N1C[C@H](C)[C@@H](CN(C)C(=O)Nc2ccc(F)cc2)Oc2ccc(NS(C)(=O)=O)cc2CC1=O . Output its cytotoxicity call only.
## Output inactive

## Input // Input: C[C@@H]1CN([C@@H](C)CO)C(=O)c2cc(NC(=O)Nc3ccc(C(F)(F)F)cc3)ccc2O[C@@H](C)CCCCO[C@H]1CN(C)CC1CCCCC1 . Output its cytotoxicity call only.
## Output inactive

## Input // Input: C[C@@H]1CCCCO[C@@H](CN(C)Cc2ccc(Cl)c(Cl)c2)[C@H](C)CN([C@H](C)CO)C(=O)c2cc(NC(=O)Nc3ccccc3)ccc2O1 . Output its cytotoxicity call only.
## Output active

## Input // Input: C[C@@H]1CCCCO[C@H](CN(C)Cc2ccc(Cl)c(Cl)c2)[C@@H](C)CN([C@H](C)CO)C(=O)c2cc(NC(=O)Nc3ccccc3)ccc2O1 . Output its cytotoxicity call only.
## Output inactive

## Input // Input: Cc1cc(C(=O)O)cc(S(N)(=O)=O)c1 . Output its cytotoxicity call only.
## Output active

## Input // Input: CC(C)COCC(CN(Cc1ccccc1)c1ccccc1)N1CCCC1.Cl (centres undefined) . Output its cytotoxicity call only.
## Output active

## Input // Input: COc1ccc(CN(C)C[C@H]2OCCCC[C@@H](C)Oc3ccc(NS(=O)(=O)c4ccc(F)cc4)cc3C(=O)N([C@H](C)CO)C[C@@H]2C)cc1 . Output its cytotoxicity call only.
## Output inactive

## Input // Input: C[C@@H]1CN([C@@H](C)CO)C(=O)Cc2cc(NC(=O)Cn3cnnn3)ccc2O[C@H]1CN(C)C(=O)NC1CCCCC1 . Output its cytotoxicity call only.
## Output inactive

## Input // Input: C[C@@H]1CN([C@H](C)CO)C(=O)c2cc(NC(=O)Nc3ccccc3)ccc2O[C@@H](C)CCCCO[C@H]1CN(C)Cc1ccc(Cl)c(Cl)c1 . Output its cytotoxicity call only.
## Output active

## Input // Input: O=C(NCC(F)(F)F)[C@@H]1c2ccccc2C(=O)N(Cc2cc(C(F)(F)F)cc(C(F)(F)F)c2)[C@H]1c1ccc(CO)cc1 . Output its cytotoxicity call only.
## Output inactive

## Input // Input: COc1ccc(CN(C)C[C@@H]2Oc3ccc(NC(=O)Nc4ccc(C(F)(F)F)cc4)cc3C(=O)N([C@@H](C)CO)C[C@H]2C)cc1 . Output its cytotoxicity call only.
## Output active

## Input // Input: Cc1ccc(S(=O)(=O)N(C)C[C@H]2OCCCC[C@@H](C)Oc3ccc(NC(=O)Nc4c(C)noc4C)cc3C(=O)N([C@H](C)CO)C[C@H]2C)cc1 . Output its cytotoxicity call only.
## Output inactive

## Input // Input: C[C@@H]1CN([C@H](C)CO)C(=O)c2cc(-c3cccc(C(=O)N(C)C)c3)cnc2O[C@H]1CN(C)S(=O)(=O)c1ccc(F)cc1 . Output its cytotoxicity call only.
## Output inactive

## Input // Input: C[C@@H]1CCCCO[C@@H](CN(C)C(=O)c2ccncc2)[C@H](C)CN([C@H](C)CO)C(=O)c2cc(NS(C)(=O)=O)ccc2O1 . Output its cytotoxicity call only.
## Output inactive

----------
# Tested on: HepG2
# Experiment Description: cytotoxicity call (relative viability < 0.9)
# Condition Summary: 10 µM
Out of some 39,000 compounds screened, about 3,300 (8.5%) were called active. The entries come from a sample that favours actives as a whole.
Field 'call' accepts yes = active, no = inactive

Worked cases, answers included:
INSERT INTO results (item_smiles, category_label) VALUES
  ('O=C1NC(=O)C(c2cnc3ccccn23)=C1c1cn2c3c(cc(F)cc13)CN(C(=O)N1CCCCC1)CC2', 'yes'),
  ('Cc1noc(C)c1S(=O)(=O)N(C)C[C@@H]1OCCCC[C@H](C)Oc2ccc(NC(=O)Nc3cccc4ccccc34)cc2C(=O)N([C@H](C)CO)C[C@@H]1C', 'no'),
  ('Cc1cccc(=O)n1CCCCN', 'no'),
  ('Cn1cnc(=O)c2ccccc21', 'no');

Moving on to the next molecule.
## Input Each molecule tested received a call. Report the one for Cc1ccc2c(=O)c3ccccc3n(CCCN)c2c1C .
## Output yes
